STUDY_SYSTEM: human TLR2 (Homo sapiens, UniProt O60603)
Construct: host or cells: HEK-Blue hTLR2 (HEK-293)
Sequence (O60603 21-784): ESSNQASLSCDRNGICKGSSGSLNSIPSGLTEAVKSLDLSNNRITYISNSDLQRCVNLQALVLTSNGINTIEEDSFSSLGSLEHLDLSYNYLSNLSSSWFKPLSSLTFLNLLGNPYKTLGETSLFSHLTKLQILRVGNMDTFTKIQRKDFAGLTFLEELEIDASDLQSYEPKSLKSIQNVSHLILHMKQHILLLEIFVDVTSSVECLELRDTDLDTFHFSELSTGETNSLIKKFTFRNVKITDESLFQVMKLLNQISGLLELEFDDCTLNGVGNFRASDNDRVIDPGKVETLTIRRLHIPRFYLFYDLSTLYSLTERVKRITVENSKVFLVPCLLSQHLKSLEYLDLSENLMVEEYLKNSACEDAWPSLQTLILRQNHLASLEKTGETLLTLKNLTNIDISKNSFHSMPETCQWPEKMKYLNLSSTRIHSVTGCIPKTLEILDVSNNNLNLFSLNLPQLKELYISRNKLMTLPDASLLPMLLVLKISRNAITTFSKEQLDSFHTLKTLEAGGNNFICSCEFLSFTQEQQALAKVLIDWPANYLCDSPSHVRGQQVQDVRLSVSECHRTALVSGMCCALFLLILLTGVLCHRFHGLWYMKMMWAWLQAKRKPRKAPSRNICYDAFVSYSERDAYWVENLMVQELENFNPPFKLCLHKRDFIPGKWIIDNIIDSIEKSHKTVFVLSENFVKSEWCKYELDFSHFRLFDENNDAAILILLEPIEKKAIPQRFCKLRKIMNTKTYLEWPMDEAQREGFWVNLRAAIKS
ASSAY_PROCEDURE: HEK-Blue hTLR2 antagonism assay (SEAP reporter) with agonist Pam2CSK4 (TLR2/6 agonist)
Type: cell-based
CONDITION_SET: Table A; HEK-Blue hTLR2 cells, ~3×EC50 Pam2CSK4, 18 h, SEAP OD 655 nm, 8-point dilutions
OUTCOME_MEASURE: IC50

The cases that follow already have their IC50 on record.
Given the compound O=Cc1cc(-c2cn(-c3cccc(N4CCCC4)c3)nn2)cc(F)c1O [Compound A45] , what is its reported IC50? 1.3 µM

Any idea what its IC50 is? The compound is O=Cc1cc(-c2csc(-c3ccc(N4CCCC4)cc3)n2)cc(F)c1O [Compound A57] 1 µM

Bench note: what IC50 did O=Cc1cc(-c2cnc(-c3ccccc3)s2)cc(F)c1O [Compound A91] show? 3.8 µM

Quick one: IC50 for O=Cc1cc(-c2ccn(-c3ccc(N4CCCCC4)cc3)n2)cc(F)c1O [Compound A28] ? 0.9 µM

IC50 for O=Cc1cc(-c2nsc(-c3ccc(N4CCCC4)cc3)n2)cc(F)c1O [Compound A61] ? 3.2 µM

Form field: reported IC50 of O=Cc1cc(-c2cnc(-c3ccccc3)o2)cc(F)c1O [Compound A88] 2.1 µM

So what's the measured IC50 for this one? O=Cc1cc(-c2csc(-c3ccc(N4CCCCC4)nc3)n2)cc(F)c1O [Compound A126] 1.1 µM

Fill blank: measured IC50 of the compound O=Cc1cc(-c2csc(-c3ccc(N4C[C@H]5CCC[C@H]5C4)cc3)n2)cc(F)c1O [Compound A97] is ____. 0.9 µM

Would you kindly share the measured IC50 for CC(=O)N/N=C/c1cc(-c2cnn(-c3ccc(N4CCCC4)cc3)c2)cc(F)c1O [Compound A38] ? 0.4 µM

Entry O=Cc1cc(-c2cnc(-c3ccccc3)s2)ncc1O [Compound A99] : reported IC50 = ? 3.3 µM

Hey, can you go through the list below and give me IC50 for every item?
1. O=Cc1cc(-c2ccn(-c3cccc(N4CCCC4)c3)n2)cc(F)c1O [Compound A30]
2. O=Cc1cc(-c2ccn(-c3ccc(N4CCOCC4)cc3)n2)cc(F)c1O [Compound A29]
3. Oc1cc(-c2cnn(-c3ccccc3)c2)cc(F)c1F [Compound A13]
4. Oc1c(F)cc(-c2cnn(-c3ccccc3)c2)cc1Cl [Compound A15]
5. Oc1c(F)cc(-c2cnn(-c3ccc(N4CCCC4)cc3)c2)cc1/C=N/N1CCOCC1 [Compound A37]
6. O=Cc1cc(-n2cc(-c3ccc(N4CCCC4)cc3)nn2)cc(F)c1O [Compound A42]
7. CC1(C)CCN(c2ccc(-c3csc(-c4cc(F)c(O)c(C=O)c4)n3)cc2)C1 [Compound A105]
8. O=Cc1cc(-c2ncc(-c3ccccc3)o2)cc(F)c1O [Compound A89]

1. 2.1 µM
2. 6.4 µM
3. 45.7 µM
4. > 100 µM
5. > 100 µM
6. 0.4 µM
7. 1.9 µM
8. > 100 µM

Consider the compound COc1cc(-c2cnn(-c3ccc(F)cc3)c2)cc(C=O)c1O [Compound A6] and give its measured IC50. 14.1 µM
